The entries below are paired with their reported cytotoxicity at 10 µM.
- MEASUREMENT_NOTES: Toxicity liver stage against HepG2, at 10uM
- Assay type: cell-based
- Parameters: test concentration 10 uM, cell line HepG2-A16-CD81EGFP
- CONDITION_NOTES: human, HepG2-A16-CD81EGFP cells; read-out: INHIBITION

| COMPOUND | UNITS_SYMBOL | cytotoxicity at 10 µM |
| --- | --- | --- |
| Cc1cc(CN(C)C(=O)NC2CCS(=O)(=O)C2)no1 (configuration not stated) | % | -1.61 |
| Cc1ccc(CNC(=O)Nc2nnc(C3CC3)s2)n1C | % | -1.61 |
| CN(C)C(=O)Cc1ccc(NCc2nccn2C)cc1 | % | -8.73 |
| Cc1nn2cccnc2c1C(=O)NCc1ccccc1OC1CCC1 | % | -46.4 |
| CC(C)CC(=O)Nc1cc(C(=O)N(C)C(C)C)ccc1Cl | % | -7.62 |
| O=c1ccn([C@H]2CCN(Cc3ncc[nH]3)CC[C@@H]2O)c(=O)[nH]1 | % | 13 |
| CCN1C[C@@H]2CN(C(=O)c3ccsc3)C[C@@H]2C1=O | % | -6.57 |
| Cc1oc(-c2ccsc2)nc1CN1CCCC(c2ccnn2C)C1 (configuration not stated) | % | 10.7 |
| CC(C)C(=O)N1CCCC(Cc2cccnc2)C1 (configuration not stated) | % | -1.55 |
| CCN1CCC(CNC(=O)NCc2cc(-c3ccc(C)cc3)no2)C1 (configuration not stated) | % | -12.3 |
| Cc1cc(-c2cccc3c2CCNC3)cnc1-n1cnnc1 | % | -0.972 |
| CCN(CCNC(=O)c1cccc(C)c1C)C1CC1 | % | 3.43 |
| CN(C)CCN1CCC2(CC1)CN(Cc1cccnc1)C(=O)CO2 | % | -106 |
| CC(=O)N1C[C@H]2CCCN(S(=O)(=O)c3ccc(Cl)s3)[C@H]2C1 | % | -2.32 |
| CCCS(=O)(=O)N1CCN(c2ccnc(N3CCCCC3)n2)CC1 | % | 0.805 |
| Cc1ccn(CCNC(=O)C2(C)CC(c3ccccc3)=NO2)n1 (configuration not stated) | % | 8.46 |
| Cc1cnn(CCCNC(=O)N2CCCCC(N3CCCC3)C2)c1 (configuration not stated) | % | -5.97 |
| C[C@@H]1CN(C(=O)CCc2nncn2C)C[C@@]1(O)C1CCC1 | % | -4.97 |
| O=C(NC1CCC2(CCC(=O)N2CC2CC2)CC1)c1cnccn1 (configuration not stated) | % | 0.729 |
| COc1ccc(CN(C)[C@@H]2CN(S(=O)(=O)C(C)C)C[C@H]2O)cc1 | % | 0.465 |
| CC(C)c1nnc(CCC(=O)N2CCCC(c3cnccn3)C2)o1 (configuration not stated) | % | 1.88 |
| Cc1cc(CN2CC[C@]3(C[C@@H](OCC(=O)N(C)C)CO3)C2)no1 | % | -105 |
| Nc1ccc(CC2COc3ccccc3C2)cn1 (configuration not stated) | % | 0.541 |
| CCOc1ccc(N2CCCN=C2NC(=O)c2cccc(C)c2)cc1 | % | 1.61 |
| COc1cccc(COc2nc(C(C)C)no2)c1 | % | -42.4 |
| O=C(NCc1cccc(F)c1F)c1cc(CN2CCCC(O)C2)on1 (configuration not stated) | % | -45.9 |
| CC(C)(C)c1cnc(CN2CCCC2Cn2cccn2)o1 (configuration not stated) | % | -9.6 |
| COc1ccc(OCc2cc(C(=O)N3CCCCO3)n[nH]2)c(Cl)c1 | % | 8.15 |
| CC(C)c1n[nH]c(C2CN(C(=O)C3=COCC3)CCO2)n1 (configuration not stated) | % | -7.99 |
| CN(C)C[C@@H]1CCC[C@@H]2CN(c3cccnc3)C[C@@H]21 | % | -11.9 |
| Cc1cc(-c2cnc(N3CCOCC3)nc2-c2cccnc2C)on1 | % | -21.4 |
| Cc1c(C2CCCN(C(=O)c3ccn(C)n3)C2)n2c(nc1=O)CCC2 (configuration not stated) | % | 0.862 |
| CCN(CCCNC(=O)Nc1ccccc1C(C)C)S(C)(=O)=O | % | -0.132 |
| CCc1nc(CCNC(=O)Nc2cccc(C(=O)NC)c2C)cs1 | % | -11.2 |
| CN(C)CCN(Cc1cccc(C(F)(F)F)c1)C(=O)c1cc[nH]n1 | % | 1.39 |
| CN(c1ncccc1C#N)C1CCN(CCc2ccccn2)CC1 | % | 0.926 |
| O=C(c1scc2c1OCCO2)N1CCOC(CCc2ccccc2)C1 (configuration not stated) | % | 10.5 |
| CCO[C@H]1CO[C@@]2(CCN(Cc3ccc4c(c3)OCO4)C2)C1 | % | 0.493 |
| CCN(CC1CC1)C(=O)NCc1nnc2n1CCC2 | % | -13.2 |
| N#Cc1cc(S(N)(=O)=O)ccc1N1CCN(c2ccccc2)CC1 | % | -3.54 |
| Cc1csc(N2CCN(Cc3cscn3)CC2C)n1 (configuration not stated) | % | 16 |
| CCOCC1CCN(C(=O)Nc2ccc3c(c2)CCCO3)C1 (configuration not stated) | % | 10.6 |
| O=C(c1cn(-c2cccc(Cl)c2F)nn1)N1CCCSCC1 | % | 3.98 |
| Cc1ccc(CN2CCC3(CC2)CCN(C(=O)c2cccnc2)C3)o1 | % | -93.3 |
| CN1CCC(N(CCc2ccccc2)C(=O)c2ccc(C#N)nc2)CC1 | % | -3.33 |
| CC(C)c1ccc(C(C)NC(=O)N2CCC(n3cncn3)CC2)cc1 (configuration not stated) | % | -6.18 |
| COc1ccc2cc(CNc3c(C)nn(C(C)C)c3C)ccc2c1 | % | -56.6 |
